B1: LINE1-full (parent)
chain: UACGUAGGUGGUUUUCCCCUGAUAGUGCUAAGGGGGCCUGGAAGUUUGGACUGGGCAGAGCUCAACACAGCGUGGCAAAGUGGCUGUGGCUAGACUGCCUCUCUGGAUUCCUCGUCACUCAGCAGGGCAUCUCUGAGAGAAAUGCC

Variants of: B1
PROTOCOL_DESCRIPTION: self-cleavage, relative activity (ratio to wild type); higher = more cleavage; in vitro, sequencing; the parent is a self-cleaving ribozyme
Record YES whenever self-cleavage is at 0.8 or higher; record NO when lower.

Previously resolved entries follow.
# VARIANT_KEY, LABEL
rows = [
    ("U1A A42G", "YES"),
    ("U85C A136U", "NO"),
    ("A92U C118G", "NO"),
]

Qu. Dear colleague, could you confirm whether U20A G36C has self-cleavage at or above 0.8?
Ans. YES

Qu. Dear colleague, could you confirm whether U108A G122U has self-cleavage at or above 0.8?
Ans. YES

Qu. Dear colleague, could you confirm whether A69G C145A has self-cleavage at or above 0.8?
Ans. NO

Qu. Dear colleague, could you confirm whether C16U U108C has self-cleavage at or above 0.8?
Ans. YES

Qu. Dear colleague, could you confirm whether A50G U109C has self-cleavage at or above 0.8?
Ans. YES

Qu. Dear colleague, could you confirm whether C118U A129G has self-cleavage at or above 0.8?
Ans. YES

Qu. Dear colleague, could you confirm whether A77C G126A has self-cleavage at or above 0.8?
Ans. YES

Qu. Dear colleague, could you confirm whether U1C A69C has self-cleavage at or above 0.8?
Ans. NO

Qu. Dear colleague, could you confirm whether A64G U115G has self-cleavage at or above 0.8?
Ans. NO

Qu. Dear colleague, could you confirm whether U96C U109G has self-cleavage at or above 0.8?
Ans. NO

Recorded values, source the RNAGym collection of RNA variant scans (doi:10.7554/elife.90254).
